Tested on: SNB-75 CNS
Experiment: NCI-60 one-dose screen, 48 h
Conditions: 10 µM unless noted
Description: Growth inhibition of the SNB-75 human tumor cell line is measured as a screen for anti-cancer activity. Cells are grown in 96 well plates and exposed to the test compound for 48 hours. Compounds are tested at a single concentration, which is 10^-5 M for most compounds. The reported endpoint is percent growth (GI% or GIPRCNT), where numbers from 0 - 100% represent growth inhibition, and numbers from -100% - 0 represent cell death. For example, a value of 40 represents 60% growth inhibition. […]
This is part of a sample that, as a whole, favours compounds with a hit. Of some 83,000 tested, about 20% had one in any assay. Active and inactive are the calls of the source. How the source made its calls: active means growth percent below 10; inactive means the rest.
Can you answer with just one of these options? active, inactive

Here's what some known entries look like.
| COMPOUND | GROUP_LABEL |
| --- | --- |
| COc1cccc(N2CCN(CC(=O)N3CCN(c4nnc(-c5ccc(Cl)cc5)c(-c5ccc(Cl)cc5)n4)CC3)CC2)c1 | inactive |
| CC(C)Cn1cnc2c(NCn3nc(-c4cc(Cl)cc(Cl)c4Cl)n(/N=C/c4ccc(Cl)cc4)c3=S)nc3ccccc3c21 | inactive |
| O=C(NCCNC(=O)Oc1cccc2ccccc12)Oc1cccc2ccccc12 | inactive |
| ICCC(c1ccccc1)(c1ccccc1)c1ccccc1 | inactive |

Which outcome was assigned to N#Cc1c(-c2ccc(F)cc2)n2c(nc1=O)SC(=O)C2=O in this test?
inactive

Short answer needed: outcome of this test for O=C(CNC(=O)c1cccc2ccccc12)Nc1ccccc1Oc1cccc(O)c1 ?
active

// return assay outcome for COc1ccc(C2CC(c3ccc(Nc4ccnc5cc(Cl)ccc45)cc3)=NN2C(C)=O)cc1 (stereo not given)
inactive

Just curious, what result did NS(=O)(=O)N(c1cc(C(F)(F)F)cc(C(F)(F)F)c1)C1CCN(Cc2ccc(C(F)(F)F)cc2)CC1 get here?
active

Please let me know the test result on file for Cc1sc2nc(NCCc3cccs3)[nH]c(=O)c2c1C .
inactive
